Target: T7 DNA polymerase gp5 (wild-type, exo+);thioredoxin (accessory protein) (bacteriophage T7;Escherichia coli, UniProt P00581;P0AA25 1-704;2-109, |)
Sequence (P00581 whole entry, chain 1 of 2): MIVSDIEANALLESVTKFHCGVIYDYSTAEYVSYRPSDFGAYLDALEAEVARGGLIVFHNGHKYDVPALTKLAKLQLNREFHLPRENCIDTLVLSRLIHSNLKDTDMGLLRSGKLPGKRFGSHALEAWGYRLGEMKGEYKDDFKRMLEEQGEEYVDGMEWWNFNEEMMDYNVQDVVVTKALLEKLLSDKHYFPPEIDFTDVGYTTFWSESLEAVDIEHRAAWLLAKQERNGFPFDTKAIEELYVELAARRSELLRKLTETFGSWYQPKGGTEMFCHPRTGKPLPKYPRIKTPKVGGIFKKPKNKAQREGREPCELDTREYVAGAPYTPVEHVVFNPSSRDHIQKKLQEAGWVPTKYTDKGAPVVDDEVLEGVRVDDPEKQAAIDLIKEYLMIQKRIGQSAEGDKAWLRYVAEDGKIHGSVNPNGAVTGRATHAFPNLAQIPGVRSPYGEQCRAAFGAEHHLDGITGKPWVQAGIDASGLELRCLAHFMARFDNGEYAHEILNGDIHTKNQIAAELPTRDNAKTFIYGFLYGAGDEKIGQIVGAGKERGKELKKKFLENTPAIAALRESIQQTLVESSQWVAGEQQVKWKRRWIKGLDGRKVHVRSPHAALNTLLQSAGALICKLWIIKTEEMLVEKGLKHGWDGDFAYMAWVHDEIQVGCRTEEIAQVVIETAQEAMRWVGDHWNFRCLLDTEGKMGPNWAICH
Sequence (P0AA25 2-109, chain 2 of 2): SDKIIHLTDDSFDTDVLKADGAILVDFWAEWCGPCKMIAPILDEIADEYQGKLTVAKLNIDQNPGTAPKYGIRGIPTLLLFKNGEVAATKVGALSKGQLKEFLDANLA
Assay: stopped-flow fluorescence anisotropy, global fit (with tCo-27-PThio titration); 12.5 mM Mg2+; k1 1100 uM-1 s-1, k-1 44 s-1; exo site; T7 reaction buffer (composition and pH not given in the material), 12.5 mM Mg2+; 20 C stated for rapid-quench
Conditions: protein: recombinant;recombinant; tags: ;; copies: 1;1; label: 5' 6-FAM; single strand
endpoint.label: pKd
One number for each entry, as −log10 of the molar value.

In: Assign pKd to the following record: CCGTCGCAGCCGTCCAACCAACTACAC (ssDNA, Sp phosphorothioate at the 3'-terminal linkage (A*C)) [FAM-27-PThio]
Out: 7.40
